Compiled IC50 measurements on PIK3CG (human) (UniProt P48736) taken from the literature.

Examples from the recorded data:
Nc1ccc(-c2nc(N3CCOCC3)nc3c2cnn3CC(=O)N2CCCC2)cn1    > 10000 nM
Cc1cnc(C(=O)N[C@@H](C)c2c(Br)c3cccc(Cl)c3c(=O)n2-c2ccccc2)c(N)n1    1000 to 10000 nM
CN1CCN(C2CN(c3cnc4ccc(-c5ccc6oc(N)nc6c5)nc4c3)C2)CC1=O    < 100 nM

Recorded IC50 for CC#Cc1cccc2cc([C@H](C)NC(=O)c3c(N)nn4cccnc34)n(-c3ccccc3)c(=O)c12 with PIK3CG (human) (UniProt P48736), please?
< 100 nM

----------
Multiple publications report pIC50 for PIK3CG (human); what follows is a combined list.
pIC50: −log10 of the molar value.

Cc1ccccc1-n1c(Cn2nc(-c3ccc(O)c(F)c3)c3c(N)ncnc32)cc2nccc(C)c2c1=O    > 6.00
Cc1csc2nc(Cn3nc(Br)c4c(N)ncnc43)n(-c3ccccc3Cl)c(=O)c12    > 6.00

Given the molecule C[C@H](Nc1ncnc2[nH]cc(C#N)c12)c1cc2cccc(Cl)c2c(C(=O)N2CCOCC2)n1 , what is its reported pIC50?
> 6.00

And C[C@H](Nc1ccnn2ccnc12)c1cc2cccc(Cl)c2c(OC2CCN(S(C)(=O)=O)CC2)n1 ?
> 5.00

Could you do the same for C[C@H](Nc1ncnc2[nH]cnc12)c1cc2cccc(-c3cnn(C)c3)c2c(N2CCN(C)CC2)n1 , please?
< 5.00

CN(C)C1CCN(C(=O)c2ccc(NC(=O)Nc3ccc(Nc4nc(Nc5ccc(C(N)=O)cc5)c5cnn(C)c5n4)cc3)cc2)CC1 , same question.
8.30

// next record O=C(Nc1ccncc1)Nc1ccc(-c2nc(N3CCOCC3)c3ccn(CCO)c3n2)cc1
7.40

----------
pIC50: −log10 of the molar value.
Multiple publications report pIC50 for PIK3CG (human) (UniProt P48736); what follows is a combined list.

Would you please look over these solved cases?
Cc1cccc2cc(Cn3nc(I)c4c(N)ncnc43)n(-c3ccccc3OCCN3CCOCC3)c(=O)c12    > 6.00
Cn1cc(C=C2Oc3ccc(NC(=O)Nc4cccnc4)cc3C2=O)c2c(N3CCC(C(=O)N[C@@H]4CCNC4)CC3)ccnc21    5.37
C[C@H](Nc1ncnc2[nH]cnc12)c1cc2cccc(Cl)c2c(C(=O)N2CCC2)n1    > 5.00
Cc1ccnc2nc(Cn3nc(C#CC4CC4)c4c(N)ncnc43)n(-c3ccccc3Cl)c(=O)c12    < 5.00

What does the record list as pIC50 for CCNc1nc2ccc(-c3ccc4c(c3)CN(c3ncnc(NCC)c3C)CCO4)cc2[nH]1 ?
6.80

Again, but for Cc1ncc(-c2cccc3cc([C@@H](Nc4ncnc5cccc(F)c45)C(C)C)n(-c4ccccc4)c(=O)c23)cn1
< 6.00

Please do the same for C[C@H](NC(=O)c1c(N)nn2cccnc12)c1cc2cccc(-c3cncc(NS(C)(=O)=O)c3)c2c(=O)n1-c1ccccc1 as well.
6.00 to 7.00

Query Cc1ccccc1-n1c(Cn2nc(-c3cccc(F)c3)c3c(N)ncnc32)cc2cccc(C)c2c1=O next
> 6.00

Try this compound next: Cn1cc(/C=C2\Oc3cc(O)cc(O)c3C2=O)c2c(-c3ccccc3)ccnc21
7.03

----------
// merged dataset of IC50 values, system = PIK3CG (human) (UniProt P48736), multiple refs
Observed property: IC50 (µM)

Cn1cc(/C=C2\Oc3cccc(O)c3C2=O)c2c(-c3ccccc3)ccnc21    0.187
CCC[C@H](Nc1ncnc2ccc(C#N)cc12)c1nc2cccc(-c3cnc(OCC)nc3)c2c(=O)n1-c1ccccc1    0.432

a. Cn1cc(-c2nc(Nc3ccc(C(N)=O)cc3)c3cnn(C)c3n2)cn1
b. CN(C)C1CCN(C(=O)c2ccc(NC(=O)Nc3ccc(Nc4nc(Nc5ccc(C(N)=O)cc5)c5cnn(C)c5n4)cc3)cc2)C1 (stereo not shown)
c. COc1ccc(Nc2nc(-c3ccc(O)cc3)nc3c2cnn3C2CCN(Cc3ccccc3)CC2)cc1OC
Provide the items ranked by increasing IC50. I'd appreciate it if you listed the labels in the requested order.
b, a, c
(b: 0.007 µM, a: 1.59 µM, c: 3.32 µM)

----------
pIC50: −log10 of the molar value.
Several publications report pIC50 on PIK3CG (human) (UniProt P48736); those values are gathered here.
Observed property: pIC50

CNC(=O)Nc1ccc(-c2nc(N3CCOCC3)c3ccn(CCN(C)C)c3n2)cc1    6.09

P. C=CC(=O)Nc1cccc(NS(=O)(=O)c2ccc(Nc3ncc4c(n3)N(C)c3ccc(C)cc3C(=O)N4C)cc2)c1
Q. CC(C)Nc1nc2c(-c3cn(C)c(=O)c4[nH]ccc34)cccc2cc1C1CCCN1c1ncnc(N)c1C#N (stereo not shown)
Compare reported pIC50 values for P and Q . Which is lower? Output the label that corresponds to your choice.
P
(P: 6.36, Q: 6.77)

----------
Literature survey of pIC50 (system: PIK3CG (human)).
pIC50: −log10 of the molar value.

As a guide, the following entries are already answered.
Cc1cc(-c2c(F)ccc3cc(C4CCCN4c4nc(N)nc(N)c4C#N)c(N4CCOCC4)nc23)cn(C)c1=O (centres unmarked)    < 5.00
Cn1cc(/C=C2\Oc3ccc(NC(=O)Nc4ccc(N5CCOCC5)cc4)cc3C2=O)c2c(N3CC4CCC(C3)O4)ccnc21    < 5.00
Cc1ccccc1-n1c(Cn2nc(Cl)c3c(N)ncnc32)nc2nccc(C)c2c1=O    > 5.00
Cn1c(-c2ccccc2)c(/C=C2\Oc3cc(O)cc(O)c3C2=O)c2cccnc21    5.40
OCCn1cnc2c(-n3c(C(F)F)nc4ccccc43)nc(N3CCOCC3)nc21    < 7.00
CCOC(=O)N1CCN(c2cnc3ccc(-c4ccc5oc(N)nc5c4)nc3c2)CC1    > 7.00
Cc1cc(-c2cccc3cc([C@@H]4CCCN4c4ncnc(N)c4C#N)c(N4CCOCC4)nc23)cn(C)c1=O    7.89

Lab note: next compound to report on.
Give PIK3CG (human) pIC50 for C[C@H](N)C(=O)N1CCN(c2cnc3ccc(-c4ccc5oc(N)nc5c4)nc3n2)CC1
> 7.00

----------
Here's a roundup of pIC50 values tested on PIK3CG (human), taken from various published works.
pIC50: −log10 of the molar value.

CCN(CC)C(=O)C1CCN(c2ccnc3c2c(/C=C2\Oc4ccc(NC(=O)Nc5cccnc5)cc4C2=O)cn3C)CC1    5.47
Cc1cccc2cc(Cn3nc(C(C)C)c4c(N)ncnc43)n(-c3ccccc3)c(=O)c12    < 5.00
C/C=C/C(=O)CCC(=O)NCC(=O)N1CCN(Cc2cc3nc(-c4cccc5[nH]ncc45)nc(N4CCOCC4)c3s2)CC1    < 6.00
C[C@H]1CN(c2cnc3ccc(-c4ccc5oc(N)nc5c4)cc3n2)CCN1C    > 6.00
CC(C)(N)C(=O)N1CCN(c2ccc3ncc(-c4ccc5oc(N)nc5c4)cc3n2)CC1    > 5.00

So what does the record say about pIC50 for Cc1ccccc1-n1c(Cn2nc(CC#N)c3c(N)ncnc32)cc2cccc(C)c2c1=O ?
> 5.00

Ok, now Cc1cccc2cc([C@H](C)Nc3ncnc4[nH]cc(C(N)=O)c34)n(C3CC3)c(=O)c12
> 7.00

----------
Before we begin, note that these IC50 values for PIK3CG (human) originate from several publications.
Observed property: IC50 (nM)

Reference set (2 entries):
COc1ncc(-c2ccc3ncn(CCC(N)=O)c(=O)c3c2)cc1NS(=O)(=O)c1ccc(F)cc1Cl    4.57
C[C@H](Nc1ncnc2cccc(F)c12)c1nc2cccc(-c3cnc(N)nc3)c2c(=O)n1-c1ccccc1    1390

1. N#CCc1ccc(Nc2ncnc3ccc(-c4cccc(O)c4)cc23)cc1
2. Cc1nn(C)cc1-c1nc2[nH]c(C(=O)N3CCC(N(C)C)CC3)nc2c(N2CCOCC2)c1F
3. CC(C)N1CCN(C(=O)c2ccc(NC(=O)Nc3ccc(-c4nc(N5CCOCC5)c5ccn(C(C)C)c5n4)cc3)cc2)CC1
4. Cn1cc(-c2cccc3cc([C@@H]4CCCN4c4nc(N)nc(N)c4C#N)c(N4CCOCC4)nc23)c2cc[nH]c2c1=O
Order the 4 molecules from highest to lowest IC50. When ranking, write the labels in the order the request describes.
1, 2, 3, 4
(1: 1840 nM, 2: 961 nM, 3: 82 nM, 4: 1.43 nM)

----------
Compiled literature IC50, tested on PIK3CG (human) (UniProt P48736).
Observed property: IC50 (µM)

Field: example entries. Status: answers known.
CCC[C@H](Nc1ncnc2ccc(C#N)cc12)c1nc2cccc(-c3cnc(OC)nc3)c2c(=O)n1-c1ccccc1    0.465
Cn1cc(/C=C2\Oc3cccc(O)c3C2=O)c2c(N3CCC(N)CC3)ccnc21    1.27
CNC(=O)Nc1ccc2c(c1)C(=O)/C(=C/c1cn(C)c3nccc(-c4ccccc4)c13)O2    1.57
O=C(c1nc2c(N3CCOCC3)nc(-c3c[nH]nc3C(F)(F)F)nc2[nH]1)N1CCC(N2CCOCC2)CC1    5.67
CCn1ccc2c(N3CCOCC3)nc(-c3ccc(NC(=O)Nc4ccc(C(=O)NCCN5CCCC5)cc4)cc3)nc21    0.038

A. Cn1cc(/C=C2\Oc3cccc(O)c3C2=O)c2c(-c3ccc(C(=O)NCCCO)cc3)ccnc21
B. CCn1ccc2c(N3CCOCC3)nc(-c3ccc(NC(=O)Nc4ccc(C(=O)N5CCNCC5)cc4)cc3)nc21
Higher IC50: A or B ? I would appreciate it if you answered with the label of your choice.
A
(A: 0.054 µM, B: 0.008 µM)
